Target: T1, recombinant human TGF-β1 (R&D systems) (human, UniProt P01137 279-390)
T1 construct: Bought protein; immobilised on a CM3 chip (SPR) or on Dynabeads (ELISA), added to cells in the SBE reporter assay; also called TGF-β1 beads
T1 sequence (P01137 279-390 limits assumed): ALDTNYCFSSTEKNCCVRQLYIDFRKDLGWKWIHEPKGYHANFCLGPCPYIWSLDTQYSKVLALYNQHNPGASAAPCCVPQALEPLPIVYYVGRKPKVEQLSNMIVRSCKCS
Assay: SPR, TGF-β1 immobilised, single cycle kinetics
Positions of bridges follow the written chain, without caps; N, C: chain ends. Non-standard residues stand in square brackets, D forms with d. No end group written: not given here. Trp(6-aza) = N[C@@H](Cc1c[nH]c2cnccc12)C(=O)O; Trp(7-aza) = N[C@@H](Cc1c[nH]c2ncccc12)C(=O)O; 1Nal = N[C@@H](Cc1cccc2ccccc12)C(=O)O; Gly(NCH2CH2Ph) = O=C(O)CNCCc1ccccc1; 4Pal = N[C@@H](Cc1ccncc1)C(=O)O
The label true is reserved for Kd strictly under 0.6 nM; false covers values equal to or above it.

{"Binder": "{CH2CO}-F[1Nal]VKNV[4Pal]DD[Gly(NCH2CH2Ph)]V[1Nal]YHVCG (thioether N-16; not fully specified (C-terminus), cyclic peptide; C-terminal G is a linker) [TGFb1_007]", "Assigned label": "false"}
{"Binder": "{CH2CO}-F[1Nal]VVNV[4Pal]DD[Gly(NCH2CH2Ph)]V[1Nal][4Pal]HVCG (thioether N-16; not fully specified (C-terminus), cyclic peptide; C-terminal G is a linker) [TGFb1_009]", "Assigned label": "true"}
{"Binder": "{CH2CO}-F[Trp(6-aza)]VVNVYDD[Gly(NCH2CH2Ph)]V[1Nal]YHVCG (thioether N-16, cyclic peptide; C-terminal G is a linker) [TGFb1_004]", "Assigned label": "false"}
{"Binder": "{CH2CO}-F[1Nal]VVNVYDD[Gly(NCH2CH2Ph)]V[1Nal]YHVC (thioether N-16, cyclic peptide) [TGFb1_002]", "Assigned label": "true"}

Next binder, please.
Query: Problem: For the binder {CH2CO}-F[Trp(7-aza)]VVNVYDD[Gly(NCH2CH2Ph)]V[1Nal]YHVCG (thioether N-16; not fully specified (C-terminus), cyclic peptide; C-terminal G is a linker) [TGFb1_005] , is Kd under 0.6 nM?
Result: false

Numbers sourced from patent US20250034212A1.
